Assay: viability loss of HPDE-C7K cells – cell-based, fluorescence, HTS, primary screen (AID 431)
Settings: HPDE-C7K KRASV12 cells, Alamar Blue viability, 48 h; at 10 µM
In all, about 63,000 compounds went through this assay and about 1,100 (1.7%) were called active.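 How the source made its calls: active means compounds whose percent cytotoxicity in the single-dose primary screen, scaled between solvent and toxic-drug controls, exceeds 50; inactive means the rest.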 The sample holds actives, similar compounds and a random draw of the others, so the mix is not that of the screen. Potency and affinity values are given separately.
Possible outcomes: active, inactive

Compound	Label class
O=C(c1ccco1)N1C2C=CC(C2)C1(C(F)(F)F)C(F)(F)F (configuration not stated)	inactive
CC1(C)Nc2ccc(O)cc2-c2c1ssc2=S	active
Cc1cccn2c(=O)c(C=Nc3ccccc3)c(NCc3ccco3)nc12	inactive
Cc1ccccc1-n1c(C)nnc1SCC(=O)NCC1CCCO1 (configuration not stated)	inactive
COC(=O)C(C(=O)OC)=C(/C=C/N(C)C)N(C)C	inactive
CCOc1ccc(NS(=O)(=O)c2ccc(NS(C)(=O)=O)cc2)cc1	inactive
COCCSc1ccccc1C(=O)NCCCn1ccnc1	inactive
Cc1ccc(NC(=O)c2oc3ccccc3c2NC(=O)c2ccc3c(c2)OCO3)cc1	inactive
COc1ccc(-c2nc(N)ncc2Oc2ccccc2Br)c(O)c1	inactive
COc1ccc(S(=O)(=O)Nc2cccc(Cl)c2)cc1OC	inactive
CCOc1ccc(S(=O)(=O)Nc2cccc(Cl)c2)cc1	active
COc1cccc(Oc2cnc(N)nc2-c2ccc(OC)cc2O)c1	inactive
